B1: Far upstream element-binding protein 1, residues 98 to 169; numbered along this chain, Q96AE4 (parent)
chain: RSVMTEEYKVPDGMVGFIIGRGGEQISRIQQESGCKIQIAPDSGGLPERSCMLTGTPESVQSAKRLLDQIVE

# Variants of: B1
# experimentalProtocol: abundance fitness (aPCA) (normalised: wild type 0, dead -1); higher = more abundant; growth selection in yeast, the domain comes from the species named
# statedConditions: Homo sapiens
Classification by abundance fitness follows these ranges: low (below -0.1), medium (-0.1 to below -0.03), high (-0.03 or more)

## Task Sort `Q25E` into one of the categories.
## Result high
